Below: a set of entries, each annotated with reported inhibition at 50 µM.
Biological target: Ca^+2-calmodulin dependent myosin light chain phosphorylation (Bos taurus)
Assay: Inhibition of myosin light chain phosphorylation (MLCP), Silver et al.
Assay type: biochemical
Conditions: 50µM; read-out: Antag. of MLCP (percent inhibition of myosin light chain phosphorylation)
Kindly provide the numeric value in % only, without the unit symbol.

Bench note, Ca^+2-calmodulin dependent myosin light chain phosphorylation (Bos taurus): entry CC1=C(C(=O)OCCOc2cccc(Cl)c2Cl)C(c2c(F)c(F)c(F)c(F)c2F)C2=C(CNCC2=O)N1 (stereo not shown) [Example 22] , its inhibition at 50 µM = 73

inhibition at 50 µM on Ca^+2-calmodulin dependent myosin light chain phosphorylation (Bos taurus) for COC(COC(=O)C1=C(C)NC2=C(C(=O)CNC2)C1c1cccc(Cl)c1C)c1ccccc1 (stereo not shown) [Example 10] is 62

Given the compound CC1=C(C(=O)OCCOc2ccccc2)C(c2c(F)c(F)c(F)c(F)c2F)C2=C(CNCC2=O)N1 (single isomer, unassigned; (-)) [Example 3] and test system Ca^+2-calmodulin dependent myosin light chain phosphorylation (Bos taurus), the measured inhibition at 50 µM is 57

Entry COC(COC(=O)C1=C(C)NC2=C(C(=O)CNC2)C1c1cccc(Cl)c1Cl)c1ccccc1 (stereo not shown) [Example 1] , tested on Ca^+2-calmodulin dependent myosin light chain phosphorylation (Bos taurus), has a reported inhibition at 50 µM of 66

# CO[C@H](COC(=O)C1=C(C)NC2=C(C(=O)CNC2)C1c1c(F)c(F)c(F)c(F)c1F)c1ccccc1 (stereo partly shown) [Example 7] with Ca^+2-calmodulin dependent myosin light chain phosphorylation (Bos taurus): inhibition at 50 µM is 59

CC1=C(C(=O)OCCOc2ccccc2)C(c2cccc(Cl)c2C)C2=C(CNCC2=O)N1 (stereo not shown) [Example 17] tested on Ca^+2-calmodulin dependent myosin light chain phosphorylation (Bos taurus) gave inhibition at 50 µM: 59

Please find the next compound below.
Item CC1=C(C(=O)OCCOc2ccccc2)C(c2c(F)c(F)c(F)c(F)c2F)C2=C(CNCC2=O)N1 (single isomer, unassigned) [Example 4] was tested on Ca^+2-calmodulin dependent myosin light chain phosphorylation (Bos taurus); the reported inhibition at 50 µM is 37

* * *

Biological target: Ca^+2-calmodulin dependent myosin light chain phosphorylation (Bos taurus, UniProt Q28824)
Test: Inhibition of myosin light chain phosphorylation (MLCP), Silver et al.
Format: biochemical
Details: 100µM; read-out: Antag. of MLCP (percent inhibition of myosin light chain phosphorylation)
metric: inhibition at 100 µM (%)
The reply should contain only the number, in %.

Some entries whose results are on file:
According to the records, this compound CO[C@H](COC(=O)C1=C(C)NC2=C(C(=O)CNC2)C1c1c(F)c(F)c(F)c(F)c1F)c1ccccc1 (single isomer, unassigned) [Example 8 Diastereomer A] displays inhibition at 100 µM of 63

inhibition at 100 µM in this record for CC1=C(C(=O)OCCOc2ccccc2)C(c2c(F)c(F)c(F)c(F)c2F)C2=C(CNCC2=O)N1 (single isomer, unassigned) [Example 4] : 67

Further cases:
get_value(item= CC1=C(C(=O)OCCOc2ccccc2)C(c2c(F)c(F)c(F)c(F)c2F)C2=C(CNCC2=O)N1 (racemic) [Example 2] , readout=inhibition at 100 µM) returns 69
